- Study System: T1, Recombinant Human FGFR2 alpha (IIIc) Fc Chimera Protein, CF (R&D systems, 712-FR-050) (human, UniProt P21802 22-377)
- T1 construct: bought; not shown: Fc part of the chimera
- T1 sequence (P21802 22-377, change not shown): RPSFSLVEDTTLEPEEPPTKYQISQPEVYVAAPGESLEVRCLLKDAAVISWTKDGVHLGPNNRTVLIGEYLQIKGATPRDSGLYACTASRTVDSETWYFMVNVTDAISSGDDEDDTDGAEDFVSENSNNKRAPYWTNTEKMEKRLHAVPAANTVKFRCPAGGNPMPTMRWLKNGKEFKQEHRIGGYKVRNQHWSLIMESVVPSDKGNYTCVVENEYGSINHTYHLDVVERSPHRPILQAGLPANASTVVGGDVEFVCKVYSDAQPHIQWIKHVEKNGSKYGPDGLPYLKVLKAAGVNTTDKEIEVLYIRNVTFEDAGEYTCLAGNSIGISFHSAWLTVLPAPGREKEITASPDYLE
- Assay Method Text: ELISA on plate-bound FGFR2-Fc
Bridge positions count the residues as written; N and C are the ends. Ends that are not written are not given here. COCH2 = acetyl group that carries the bridge
// reported ELISA luminescence signal at 10 nmol/L peptide, relative to SEQ ID NO: 47 (=1) per item

For the binder DCLRQQVYQYLYILFQNDIAK(COCH2)D (thioether 2-21 (inferred)) [cyclic peptide SEQ ID NO: 418] , give its reported ELISA luminescence signal at 10 nmol/L peptide, relative to SEQ ID NO: 47 (=1). 0.1 to 0.5 ratio

Specify reported ELISA luminescence signal at 10 nmol/L peptide, relative to SEQ ID NO: 47 (=1) for the binder shown: YCEEAYLDPEQYQYFIYFK(COCH2)Y (thioether 2-19 (inferred)) [cyclic peptide SEQ ID NO: 325] 0.1 to 0.5 ratio

Report measured ELISA luminescence signal at 10 nmol/L peptide, relative to SEQ ID NO: 47 (=1); entry is YCEENYLDPEQHQYFIYFK(COCH2)Y (thioether 2-19 (inferred)) [cyclic peptide SEQ ID NO: 256] ≥ 0.7 ratio

Fill in reported ELISA luminescence signal at 10 nmol/L peptide, relative to SEQ ID NO: 47 (=1) for this entry: YCEENYLVPEQYQYFIYFK(COCH2)Y (thioether 2-19 (inferred)) [cyclic peptide SEQ ID NO: 210] 0.1 to 0.5 ratio

Please give the documented ELISA luminescence signal at 10 nmol/L peptide, relative to SEQ ID NO: 47 (=1) of QCPQNFINPVQWRYFQHYK(COCH2)N (thioether 2-19 (inferred)) [cyclic peptide SEQ ID NO: 80] ≥ 0.7 ratio

Identify ELISA luminescence signal at 10 nmol/L peptide, relative to SEQ ID NO: 47 (=1) associated with the binder QCQNFITEVQFTYFWHYK(COCH2)T (thioether 2-18) [cyclic peptide SEQ ID NO: 123] ≥ 0.7 ratio
